Cited source for all entries: ChEMBL document CHEMBL5029155

- System: M14
- Test method notes: Antiproliferative activity against human M14 cells assessed as cell growth inhibition incubated for 72 hrs by MTS assay
- Format: functional, cell-based
- Stated conditions: M14, 72 h
Result type: log10 IC50 (log10 of the value in nM)

# Substance smiles, log10 IC50
data = [
    ("COc1cc(C(=O)c2cncc(-c3cccc4[nH]ncc34)n2)cc(OC)c1OC", 1.34),
    ("COc1cc(C(=O)c2cccc(-c3ccc4c(c3)CCN4)n2)cc(OC)c1OC", 0.75),
    ("COc1cc(C(=O)c2cccc(-c3ccc(C)c(O)c3)n2)cc(OC)c1OC", 0.30),
    ("COc1cc(C(=O)c2cc(OC)c(OC)c(OC)c2)nc(-c2ccc(C)c(O)c2)c1", 1.24),
    ("COc1cc(C(=O)c2cccc(-c3ccc(N(C)C)cc3)n2)cc(OC)c1OC", 1.80),
    ("COc1cc(C(=O)c2cc(C)cc(-c3ccc(C)c(N)c3)n2)cc(OC)c1OC", 0.77),
    ("COc1cc(C(=O)c2ccnc(-c3ccc(C)c(O)c3)n2)cc(OC)c1OC", 0.73),
    ("CCc1c(OC)cc(C(=O)c2cccc(-c3ccc(C)c(O)c3)n2)cc1OC", 1.39),
    ("COc1cc(-n2ccc3ccc(-c4ccc(C)cc4)nc32)cc(OC)c1OC", 1.88),
    ("COc1cc(C(=O)c2c[nH]c(-c3ccc(C)c(O)c3)n2)cc(OC)c1OC", 1.51),
]

###

- Tested on: M14
- Test method notes: Antiproliferative activity against human M14 cells assessed as cell growth inhibition incubated for 72 hrs by MTS assay
- Assay type: functional, cell-based
- Stated conditions: M14, 72 h
Reported IC50 values follow for various compounds
Result type: IC50 (nM)

# Substance smiles, Recorded value
data = [
    ("COc1cc(C(=O)c2nc(-c3ccc(C)c(O)c3)ccc2F)cc(OC)c1OC", 1.9),
    ("COc1cc(-c2n[nH]c3ccc(-c4ccc(C)c(O)c4)nc23)cc(OC)c1OC", 18.5),
    ("COc1cc(C(=O)c2cc(F)cc(-c3ccc(C(F)F)cc3)c2)cc(OC)c1OC", 56.3),
]

###

- Experimental system: CYP1A2 (description prints CYP1AA) (Homo sapiens)
- Sequence (P05177 whole entry): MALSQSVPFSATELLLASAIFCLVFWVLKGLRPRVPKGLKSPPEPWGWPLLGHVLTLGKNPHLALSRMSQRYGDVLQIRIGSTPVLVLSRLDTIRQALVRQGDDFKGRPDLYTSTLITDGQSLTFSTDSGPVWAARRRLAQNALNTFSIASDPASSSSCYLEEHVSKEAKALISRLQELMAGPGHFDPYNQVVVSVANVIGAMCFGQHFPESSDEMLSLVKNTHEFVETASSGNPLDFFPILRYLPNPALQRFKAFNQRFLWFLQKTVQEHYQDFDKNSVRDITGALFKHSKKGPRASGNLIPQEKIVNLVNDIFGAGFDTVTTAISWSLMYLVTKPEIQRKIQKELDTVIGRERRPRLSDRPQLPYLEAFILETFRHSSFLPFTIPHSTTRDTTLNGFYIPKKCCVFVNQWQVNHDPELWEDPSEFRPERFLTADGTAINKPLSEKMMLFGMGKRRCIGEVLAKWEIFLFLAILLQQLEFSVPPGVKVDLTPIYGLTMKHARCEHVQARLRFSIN
- Test method notes: Inhibition of […] in human liver microsomes using phenacetin as substrate at 10 uM
- Format: ADME
- Stated conditions: probe phenacetin
Result type: inhibition at 10 µM (%)

# Substance smiles, Recorded value
data = [
    ("COc1cc(C(=O)c2nc(-c3ccc(C)c(O)c3)ccc2F)cc(OC)c1OC", 50.9),
]

###

- Experimental system: CYP2C9 (Homo sapiens, UniProt P11712)
- Sequence (P11712 whole entry): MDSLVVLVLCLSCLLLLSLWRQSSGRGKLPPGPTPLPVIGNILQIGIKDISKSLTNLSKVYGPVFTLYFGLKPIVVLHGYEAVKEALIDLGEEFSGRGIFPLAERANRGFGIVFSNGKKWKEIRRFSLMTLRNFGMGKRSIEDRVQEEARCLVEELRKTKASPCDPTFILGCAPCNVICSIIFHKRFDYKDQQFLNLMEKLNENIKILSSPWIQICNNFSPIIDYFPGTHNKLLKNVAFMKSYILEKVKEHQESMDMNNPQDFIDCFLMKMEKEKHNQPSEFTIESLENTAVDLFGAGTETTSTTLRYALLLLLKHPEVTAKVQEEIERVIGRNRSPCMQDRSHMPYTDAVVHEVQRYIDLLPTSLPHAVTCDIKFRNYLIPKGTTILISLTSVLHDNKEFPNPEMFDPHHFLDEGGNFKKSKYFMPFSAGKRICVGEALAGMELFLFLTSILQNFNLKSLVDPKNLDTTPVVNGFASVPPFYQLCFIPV
- Test method notes: Inhibition of CYP2C9 in human liver microsomes using diclofenac as substrate at 10 uM
- Type: ADME
- Stated conditions: probe diclofenac
Result type: inhibition at 10 µM (%)

# Substance smiles, Recorded value
rows = [
    ("COc1cc(C(=O)c2nc(-c3ccc(C)c(O)c3)ccc2F)cc(OC)c1OC", 54.7),
]

###

- Test method notes: Metabolic stability in mouse liver microsomes assessed as intrinsic clearance in presence of NADPH regenerating system by UPLC-MS analysis
- Type: ADME, Microsome
- Stated conditions: read-out: CLH

# Substance smiles, CLint scaled, mL/min/kg
records = [
    ("COc1cc(C(=O)c2cc(C)cc(-c3ccc(C)cc3)n2)cc(OC)c1OC", 824),
    ("CCc1c(OC)cc(C(=O)c2cccc(-c3ccc(C)c(O)c3)n2)cc1OC", 16.2),
    ("COc1cc(-c2n[nH]c3ccc(-c4ccc(C)c(O)c4)nc23)cc(OC)c1OC", 20.5),
    ("COc1cc(C(=O)c2cccc(-c3ccc(C)c(O)c3)n2)cc(OC)c1OC", 57.3),
    ("COc1cc(C(=O)c2cc(OC)c(OC)c(OC)c2)nc(-c2ccc(C)cc2)c1", 13),
    ("COc1cc(C(=O)c2nc(-c3ccc(C)c(O)c3)ccc2F)cc(OC)c1OC", 4.6),
    ("COc1cc(C(=O)c2nc(-c3ccc(C)cc3)ccc2F)cc(OC)c1OC", 273),
    ("COc1cc(C(=O)c2cncc(-c3ccc(C)c(O)c3)n2)cc(OC)c1OC", 28.7),
    ("COc1cc(C(=O)c2c[nH]c(-c3ccc(C)c(O)c3)n2)cc(OC)c1OC", 40.6),
    ("COc1cc(C(=O)c2nc(-c3ccc(C(F)F)cc3)ccc2F)cc(OC)c1OC", 38.2),
    ("COc1cc(C(=O)c2cccc(-c3ccc(C)cc3)n2)cc(OC)c1OC", 1050),
    ("COc1cc(C(=O)c2ccnc(-c3ccc(C)c(O)c3)n2)cc(OC)c1OC", 43.8),
    ("COc1cc(C(=O)c2cncc(-c3ccc(C)cc3)n2)cc(OC)c1OC", 65.8),
    ("COc1cc(C(=O)c2cc(OC)c(OC)c(OC)c2)nc(-c2ccc(C)c(O)c2)c1", 76.7),
    ("COc1cc(C(=O)c2cccc(-c3ccc(C)cc3)n2)cc2c1OCCO2", 1900),
    ("COc1cc(C(=O)c2cccc(-c3ccc(C(F)F)cc3)n2)cc(OC)c1OC", 271),
    ("COc1cc(C(=O)c2cccc(-c3ccc4c(c3)CCN4)n2)cc(OC)c1OC", 818),
    ("COCCOc1c(OC)cc(C(=O)c2cccc(-c3ccc(C)cc3)n2)cc1OC", 397),
]
